Consider the following compounds and their measured Average ΔCt ± s.d. MitCoxII readings.
# Tested on: HepG2 cells (mitochondrial COXII DNA)
# cond: HepG2, 14-day treatment, 10 μM

[
  {
    "compound-string": "Nc1ccn([C@@H]2C=C(F)[C@H](CO)O2)c(=O)n1",
    "Average ΔCt ± s.d. MitCoxII": 0.39
  },
  {
    "compound-string": "Nc1nc(=O)n([C@@H]2C=C(F)[C@H](CO)O2)cc1F",
    "Average ΔCt ± s.d. MitCoxII": 0.23
  },
  {
    "compound-string": "Nc1ccn([C@@H]2C=C[C@H](CO)O2)c(=O)n1",
    "Average ΔCt ± s.d. MitCoxII": 2.72
  },
  {
    "compound-string": "Nc1nc(=O)n([C@@H]2C=C[C@H](CO)O2)cc1F",
    "Average ΔCt ± s.d. MitCoxII": 2.72
  },
  {
    "compound-string": "Nc1ccn([C@H]2CC[C@@H](CO)O2)c(=O)n1",
    "Average ΔCt ± s.d. MitCoxII": 7.70
  },
  {
    "compound-string": "Nc1nc(=O)n([C@H]2O[C@@H](CO)C=C2F)cc1F",
    "Average ΔCt ± s.d. MitCoxII": 0.05
  },
  {
    "compound-string": "Nc1ccn([C@H]2O[C@@H](CO)C=C2F)c(=O)n1",
    "Average ΔCt ± s.d. MitCoxII": "−0.36"
  }
]

###

# System: HepG2 cells (mitochondrial COXII DNA)
# cond: HepG2, 14-day treatment, 10 μM

[
  {
    "compound-string": "Nc1nc(=O)n([C@@H]2C=C[C@H](CO)O2)cc1F",
    "tested-system": "HepG2 cells (mitochondrial COXII DNA)",
    "Average ΔCt ± s.d. rDNA": "3.89 ± 0.23"
  },
  {
    "compound-string": "Nc1ccn([C@H]2O[C@@H](CO)C=C2F)c(=O)n1",
    "tested-system": "HepG2 cells (mitochondrial COXII DNA)",
    "Average ΔCt ± s.d. rDNA": "−0.06 ± 0.27"
  },
  {
    "compound-string": "Nc1nc(=O)n([C@@H]2C=C(F)[C@H](CO)O2)cc1F",
    "tested-system": "HepG2 cells (mitochondrial COXII DNA)",
    "Average ΔCt ± s.d. rDNA": "−0.10 ± 0.06"
  },
  {
    "compound-string": "Nc1ccn([C@@H]2C=C[C@H](CO)O2)c(=O)n1",
    "tested-system": "HepG2 cells (mitochondrial COXII DNA)",
    "Average ΔCt ± s.d. rDNA": "3.96 ± 0.87"
  },
  {
    "compound-string": "Nc1ccn([C@@H]2C=C(F)[C@H](CO)O2)c(=O)n1",
    "tested-system": "HepG2 cells (mitochondrial COXII DNA)",
    "Average ΔCt ± s.d. rDNA": "−0.11 ± 0.38"
  },
  {
    "compound-string": "Nc1ccn([C@H]2CC[C@@H](CO)O2)c(=O)n1",
    "tested-system": "HepG2 cells (mitochondrial COXII DNA)",
    "Average ΔCt ± s.d. rDNA": "0.92 ± 0.52"
  },
  {
    "compound-string": "Nc1nc(=O)n([C@H]2O[C@@H](CO)C=C2F)cc1F",
    "tested-system": "HepG2 cells (mitochondrial COXII DNA)",
    "Average ΔCt ± s.d. rDNA": "−0.23 ± 0.20"
  }
]

###

Consider the following molecules and their measured Fold difference in COXII DNA levels normalized for rDNA (range) relative to control readings.
# Tested on: HepG2 cells (mitochondrial COXII DNA)
# cond: HepG2, 14-day treatment, 10 μM
measured-quantity: Fold difference in COXII DNA levels normalized for rDNA (range) relative to control

[
  {
    "molecule": "Nc1ccn([C@@H]2C=C[C@H](CO)O2)c(=O)n1 [L-d4C]",
    "tested-system": "HepG2 cells (mitochondrial COXII DNA)",
    "endpoint-value": "2.36 (1.67-3.35)"
  },
  {
    "molecule": "Nc1nc(=O)n([C@@H]2C=C[C@H](CO)O2)cc1F [L-d4FC]",
    "tested-system": "HepG2 cells (mitochondrial COXII DNA)",
    "endpoint-value": "2.25 (1.62-3.12)"
  },
  {
    "molecule": "Nc1nc(=O)n([C@@H]2C=C(F)[C@H](CO)O2)cc1F [L-3′F-D4FC]",
    "tested-system": "HepG2 cells (mitochondrial COXII DNA)",
    "endpoint-value": "0.80 (0.85-0.74)"
  },
  {
    "molecule": "Nc1ccn([C@@H]2C=C(F)[C@H](CO)O2)c(=O)n1 [L-3′F-D4C]",
    "tested-system": "HepG2 cells (mitochondrial COXII DNA)",
    "endpoint-value": "0.71 (1.02-0.50)"
  },
  {
    "molecule": "Nc1ccn([C@H]2O[C@@H](CO)C=C2F)c(=O)n1 [L-2′F-D4C]",
    "tested-system": "HepG2 cells (mitochondrial COXII DNA)",
    "endpoint-value": "1.23 (1.02-1.50)"
  },
  {
    "molecule": "Nc1nc(=O)n([C@H]2O[C@@H](CO)C=C2F)cc1F [L-2′F-D4FC]",
    "tested-system": "HepG2 cells (mitochondrial COXII DNA)",
    "endpoint-value": "0.82 (0.73-0.92)"
  }
]

###

# Test system: HepG2 cells (mitochondrial COXII DNA)
# cond: HepG2, 14-day treatment, 100 μM
Simple rule here: Average ΔCt ± s.d. MitCoxII less than 0.3 is met, otherwise not met.

[
  {
    "compound-string": "Nc1ccn([C@@H]2C=C(F)[C@H](CO)O2)c(=O)n1",
    "category-label": "met"
  },
  {
    "compound-string": "Nc1nc(=O)n([C@@H]2C=C(F)[C@H](CO)O2)cc1F",
    "category-label": "met"
  },
  {
    "compound-string": "Nc1ccn([C@@H]2C=C[C@H](CO)O2)c(=O)n1",
    "category-label": "not met"
  },
  {
    "compound-string": "Nc1nc(=O)n([C@H]2O[C@@H](CO)C=C2F)cc1F",
    "category-label": "not met"
  },
  {
    "compound-string": "Nc1ccn([C@H]2O[C@@H](CO)C=C2F)c(=O)n1",
    "category-label": "not met"
  },
  {
    "compound-string": "Nc1nc(=O)n([C@@H]2C=C[C@H](CO)O2)cc1F",
    "category-label": "not met"
  }
]

###

# Tested on: HepG2 cells (mitochondrial COXII DNA)
# cond: HepG2, 14-day treatment, 10 μM
Consider the following compounds and their measured Average ΔΔCt ± s.d. MitCOXII-rDNA readings.
measured-quantity: Average ΔΔCt ± s.d. MitCOXII-rDNA

[
  {
    "compound": "Nc1nc(=O)n([C@@H]2C=C(F)[C@H](CO)O2)cc1F [L-3′F-D4FC]",
    "endpoint-value": 0.33
  },
  {
    "compound": "Nc1ccn([C@@H]2C=C(F)[C@H](CO)O2)c(=O)n1 [L-3′F-D4C]",
    "endpoint-value": 0.49
  },
  {
    "compound": "Nc1nc(=O)n([C@H]2O[C@@H](CO)C=C2F)cc1F [L-2′F-D4FC]",
    "endpoint-value": 0.28
  },
  {
    "compound": "Nc1ccn([C@@H]2C=C[C@H](CO)O2)c(=O)n1 [L-d4C]",
    "endpoint-value": "−1.24"
  },
  {
    "compound": "Nc1nc(=O)n([C@@H]2C=C[C@H](CO)O2)cc1F [L-d4FC]",
    "endpoint-value": "−1.17"
  },
  {
    "compound": "Nc1ccn([C@H]2O[C@@H](CO)C=C2F)c(=O)n1 [L-2′F-D4C]",
    "endpoint-value": "−0.30"
  }
]

###

# Test system: HepG2 cells (mitochondrial COXII DNA)
# cond: HepG2, 14-day treatment, 100 μM
Consider the following compounds and their measured Average ΔCt ± s.d. rDNA readings.

[
  {
    "compound-string": "Nc1ccn([C@@H]2C=C(F)[C@H](CO)O2)c(=O)n1",
    "Average ΔCt ± s.d. rDNA": "−0.28"
  },
  {
    "compound-string": "Nc1nc(=O)n([C@@H]2C=C[C@H](CO)O2)cc1F",
    "Average ΔCt ± s.d. rDNA": 8.76
  },
  {
    "compound-string": "Nc1ccn([C@@H]2C=C[C@H](CO)O2)c(=O)n1",
    "Average ΔCt ± s.d. rDNA": 10.14
  },
  {
    "compound-string": "Nc1nc(=O)n([C@H]2O[C@@H](CO)C=C2F)cc1F",
    "Average ΔCt ± s.d. rDNA": 0.85
  },
  {
    "compound-string": "Nc1ccn([C@H]2O[C@@H](CO)C=C2F)c(=O)n1",
    "Average ΔCt ± s.d. rDNA": 0.53
  },
  {
    "compound-string": "Nc1nc(=O)n([C@@H]2C=C(F)[C@H](CO)O2)cc1F",
    "Average ΔCt ± s.d. rDNA": "−0.94"
  }
]
